# Tested System: IRAK4 (Homo sapiens)
# Construct: Degradation of IRAK4 in OCI-LY10 was quantitatively measured using Meso Scale Discovery technology; endogenous in cells; host or cells: OCI-LY10
# Sequence (Q9NWZ3 whole entry): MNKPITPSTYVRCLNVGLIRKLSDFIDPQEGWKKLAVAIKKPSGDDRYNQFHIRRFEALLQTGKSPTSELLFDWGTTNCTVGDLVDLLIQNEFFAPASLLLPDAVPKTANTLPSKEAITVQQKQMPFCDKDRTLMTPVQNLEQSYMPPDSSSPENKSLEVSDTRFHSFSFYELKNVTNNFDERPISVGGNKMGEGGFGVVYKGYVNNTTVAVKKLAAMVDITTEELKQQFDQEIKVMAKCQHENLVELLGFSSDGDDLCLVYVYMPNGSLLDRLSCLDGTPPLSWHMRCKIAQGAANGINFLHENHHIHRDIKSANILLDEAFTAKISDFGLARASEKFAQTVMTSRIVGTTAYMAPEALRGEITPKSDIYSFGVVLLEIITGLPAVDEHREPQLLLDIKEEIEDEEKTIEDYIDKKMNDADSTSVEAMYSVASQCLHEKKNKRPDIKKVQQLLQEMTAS
# Assay Method Text: IRAK4 MSD Degradation in OCI-LY10
# Format: cell-based
# Stated Conditions: OCI-LY10 cells, 24 hrs incubation, MSD; read-out: IRAK4 degradation in OCI-LY10 at 24 hrs: DC50
Experimental Endpoint: DC50

What value of measured DC50 is listed for Cn1c(=O)n(C2CCC(=O)NC2=O)c2cccc(C#CCN3CCN(C[C@H]4CC[C@H](n5cc(NC(=O)c6cnn7ccc(N8CC(C)(C)C8)nc67)c(C(F)F)n5)CC4)CC3)c21 (stereo partly shown) [I-225] ?
< 10 nM

Item: Cn1c(=O)n(C2CCC(=O)NC2=O)c2cccc(N3CCC(CO[C@H]4CC[C@H](n5cc(NC(=O)c6cnn7cccnc67)c(C(F)F)n5)CC4)CC3)c21 (stereo partly shown) [I-239]
> 200 nM

Item: Cn1c(=O)n(C2CCC(=O)NC2=O)c2cccc(C#CCN3CCN(C[C@H]4CC[C@H](n5cc(NC(=O)c6cnn7ccc(C(C)(C)C)nc67)c(C(F)F)n5)CC4)CC3)c21 (stereo partly shown) [I-219]
> 200 nM

Item: CC(C)(O)c1cc2nn([C@H]3CC[C@H](CNCCCNc4cccc5c4C(=O)N(C4CCC(=O)NC4=O)C5=O)CC3)cc2cc1NC(=O)c1cccc(C(F)(F)F)n1 (stereo partly shown) [I-146]
10 to 100 nM

* * *

# Tested System: IRAK4 (Homo sapiens)
# Construct: Degradation of IRAK4 in OCI-LY10 was quantitatively measured using Meso Scale Discovery technology; endogenous in cells; host or cells: OCI-LY10
# Assay Method Text: IRAK4 MSD Degradation in OCI-LY10
# Format: cell-based
# Stated Conditions: OCI-LY10 cells, 4 hrs incubation, MSD; read-out: IRAK4 degradation in OCI-LY10 at 4 hrs: DC50
Experimental Endpoint: DC50

What value of measured DC50 is listed for Cn1c(=O)n(C2CCC(=O)NC2=O)c2cccc(C#CCCN3CCN(CC4CCC(n5cc(NC(=O)c6cnn7ccc(C8C[C@H]9C[C@@H]8CO9)nc67)c(C(F)F)n5)CC4)CC3)c21 (stereo partly drawn) [I-162] ?
< 10 nM

Item: CN(C[C@H]1CC[C@H](n2cc(NC(=O)c3cnn4ccc(N5CCCC5)nc34)c(C(F)F)n2)CC1)C1CCN(c2cccc3c2n(C)c(=O)n3C2CCC(=O)NC2=O)CC1 (stereo partly drawn) [I-278]
> 200 nM

Item: Cn1c(=O)n(C2CCC(=O)NC2=O)c2cccc(C3=CCN(C[C@H]4CC[C@H](n5cc6cc(NC(=O)c7cccc(C(F)(F)F)n7)c(C(F)F)cc6n5)CC4)CC3F)c21 (stereo partly drawn) [I-459]
> 200 nM

Item: CN(C[C@H]1CC[C@H](n2cc(NC(=O)c3cnn4ccc(N5CC(C)(C)OC(C)(C)C5)nc34)c(C(F)F)n2)CC1)C1CCN(c2cccc3c2n(C)c(=O)n3C2CCC(=O)NC2=O)CC1(F)F (stereo partly drawn) [I-531]
> 200 nM

Item: Cn1c(=O)n(C2CCC(=O)NC2=O)c2cccc(C#CCO[C@H]3CCN(C[C@H]4CC[C@H](n5cc(NC(=O)c6cnn7ccc(N8CCS(=O)(=O)CC8)nc67)c(C(F)F)n5)CC4)C[C@@H]3F)c21 (stereo partly drawn) [I-591]
> 200 nM

Item: Cn1c(=O)n(C2CCC(=O)NC2=O)c2cccc(C3CCN(C[C@H]4CC[C@H](n5cc6cc(NC(=O)c7cnn8ccc(N9C[C@H]%10C[C@@H]9CO%10)nc78)ccc6n5)CC4)CC3(F)F)c21 (stereo partly drawn) [I-719]
> 200 nM

Item: Cn1c(=O)n(C2CCC(=O)NC2=O)c2ccnc(N3CCN([C@H]4CCN(C[C@H]5CC[C@H](n6cc(NC(=O)c7cnn8ccc(N9C[C@H]%10C[C@@H]9CO%10)nc78)c(C(F)F)n6)CC5)CC4(F)F)CC3)c21 (stereo partly drawn) [I-744]
> 200 nM

Item: C[C@@H]1CN(c2ccn3ncc(C(=O)Nc4cn([C@H]5CC[C@H](CN6CCN(CC7CN(c8cccc9c8n(C)c(=O)n9C8CCC(=O)NC8=O)C7)CC6)CC5)nc4C(F)F)c3n2)CCO1 (stereo partly drawn) [I-680]
> 200 nM

Item: COc1cc2nn([C@H]3CC[C@H](CN4CCC5(CC4)CCN(c4cccc6c4n(C)c(=O)n6C4CCC(=O)NC4=O)CC5)CC3)cc2cc1NC(=O)c1cncc(SC)c1 (stereo partly drawn) [I-149]
< 10 nM

Item: CN(C[C@H]1CC[C@H](n2cc(NC(=O)c3cnn4cccnc34)c(C(F)F)n2)CC1)C1CCN(c2ccc3c(c2)n(C)c(=O)n3C2CCC(=O)NC2=O)CC1(F)F (stereo partly drawn) [I-570]
> 200 nM

Item: Cn1c(=O)n(C2CCC(=O)NC2=O)c2ccnc(N3CCN([C@@H]4CCN(C[C@H]5CC[C@H](n6cc(NC(=O)c7cnn8ccc(N9C[C@H]%10C[C@@H]9CO%10)nc78)c(C(F)F)n6)CC5)CC4(F)F)CC3)c21 (stereo partly drawn) [I-743]
> 200 nM

Item: Cn1c(=O)n(C2CCC(=O)NC2=O)c2cccc(C3=CCN(C[C@H]4CC[C@H](n5cc6cc(NC(=O)c7cccc(C(F)(F)F)n7)c(C#N)cc6n5)CC4)CC3(F)F)c21 (stereo partly drawn) [I-455]
> 200 nM
